biological target: Alpha-2B adrenergic receptor (Homo sapiens, UniProt P18089); test: Agonist activity at human alpha2b-AR expressed in CHO cells assessed as rate of acidification after 240 mins by cytosensor microphysiometric analysis
Sequence (P18089 whole entry): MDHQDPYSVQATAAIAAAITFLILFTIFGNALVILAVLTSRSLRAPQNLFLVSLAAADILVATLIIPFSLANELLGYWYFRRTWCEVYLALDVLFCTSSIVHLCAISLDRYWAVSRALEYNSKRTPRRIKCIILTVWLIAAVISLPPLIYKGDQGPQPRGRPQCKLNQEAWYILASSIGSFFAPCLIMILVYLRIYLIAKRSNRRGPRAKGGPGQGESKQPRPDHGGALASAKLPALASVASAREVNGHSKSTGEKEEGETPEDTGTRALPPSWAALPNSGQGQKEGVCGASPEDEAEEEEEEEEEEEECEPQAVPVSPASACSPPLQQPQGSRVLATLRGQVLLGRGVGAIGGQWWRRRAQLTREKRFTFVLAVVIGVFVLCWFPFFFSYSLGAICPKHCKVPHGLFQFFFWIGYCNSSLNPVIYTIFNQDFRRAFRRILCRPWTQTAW
property-measured: EC50 (nM)

Record excerpt, results attached:
chemical-string	EC50 (nM)
Clc1ccccc1NCC1=NCCN1	776
Cc1ccccc1NCC1=NCCN1	3160

A. C=CCc1ccccc1NCC1=NCCN1
B. CCCc1ccccc1NCC1=NCCN1
C. c1ccc(-c2ccccc2NCC2=NCCN2)cc1
// smallest EC50 at index 0, largest at the end Returns: the labels listed in the requested order.
C, A, B

###

Target: Alpha-2C adrenergic receptor (Homo sapiens) (UniProt P18825)
Sequence (whole entry): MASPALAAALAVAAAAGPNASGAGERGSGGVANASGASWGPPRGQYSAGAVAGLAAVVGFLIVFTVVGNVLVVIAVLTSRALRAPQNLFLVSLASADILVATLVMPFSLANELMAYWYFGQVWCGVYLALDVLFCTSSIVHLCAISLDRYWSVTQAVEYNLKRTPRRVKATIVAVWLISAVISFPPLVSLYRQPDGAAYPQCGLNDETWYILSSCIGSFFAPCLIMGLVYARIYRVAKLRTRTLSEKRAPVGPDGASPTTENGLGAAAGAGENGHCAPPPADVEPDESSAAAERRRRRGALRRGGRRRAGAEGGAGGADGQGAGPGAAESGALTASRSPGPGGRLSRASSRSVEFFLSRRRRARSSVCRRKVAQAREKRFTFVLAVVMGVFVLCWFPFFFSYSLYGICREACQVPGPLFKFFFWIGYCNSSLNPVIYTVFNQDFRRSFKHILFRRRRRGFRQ
Experiment: Agonist activity at human alpha2c-AR expressed in CHO cells assessed as rate of acidification after 240 mins by cytosensor microphysiometric analysis relative to (-)-noradrenaline
Type: cell-based
property-measured: Intrinsic activity

chemical-string	study-system	Intrinsic activity
CCCc1ccccc1NCC1=NCCN1	Alpha-2C adrenergic receptor (Homo sapiens) (UniProt P18825)	0.75
c1ccc(-c2ccccc2NCC2=NCCN2)cc1	Alpha-2C adrenergic receptor (Homo sapiens) (UniProt P18825)	0.8
Clc1ccccc1NCC1=NCCN1	Alpha-2C adrenergic receptor (Homo sapiens) (UniProt P18825)	0.85
C=CCc1ccccc1NCC1=NCCN1	Alpha-2C adrenergic receptor (Homo sapiens) (UniProt P18825)	0.8
Cc1ccccc1NCC1=NCCN1	Alpha-2C adrenergic receptor (Homo sapiens) (UniProt P18825)	0.8

###

molecular target: Alpha-2A adrenergic receptor (Homo sapiens); assay: Antagonist activity at human alpha2a-AR expressed in CHO cells assessed as inhibition of (-)-noradrenaline-induced acidification rate after 240 mins by cytosensor microphysiometric analysis; type: cell-based
property-measured: pKb

chemical-string	study-system	recorded-number
Clc1ccccc1NCC1=NCCN1	Alpha-2A adrenergic receptor (Homo sapiens)	7.12
Cc1ccccc1NCC1=NCCN1	Alpha-2A adrenergic receptor (Homo sapiens)	7.58
C=CCc1ccccc1NCC1=NCCN1	Alpha-2A adrenergic receptor (Homo sapiens)	6.77
CCCc1ccccc1NCC1=NCCN1	Alpha-2A adrenergic receptor (Homo sapiens)	6.71

###

Molecular target: Adrenergic receptor alpha-2 (Rattus norvegicus, UniProt P22086+P19328+P22909)
Sequence (P22086 whole entry): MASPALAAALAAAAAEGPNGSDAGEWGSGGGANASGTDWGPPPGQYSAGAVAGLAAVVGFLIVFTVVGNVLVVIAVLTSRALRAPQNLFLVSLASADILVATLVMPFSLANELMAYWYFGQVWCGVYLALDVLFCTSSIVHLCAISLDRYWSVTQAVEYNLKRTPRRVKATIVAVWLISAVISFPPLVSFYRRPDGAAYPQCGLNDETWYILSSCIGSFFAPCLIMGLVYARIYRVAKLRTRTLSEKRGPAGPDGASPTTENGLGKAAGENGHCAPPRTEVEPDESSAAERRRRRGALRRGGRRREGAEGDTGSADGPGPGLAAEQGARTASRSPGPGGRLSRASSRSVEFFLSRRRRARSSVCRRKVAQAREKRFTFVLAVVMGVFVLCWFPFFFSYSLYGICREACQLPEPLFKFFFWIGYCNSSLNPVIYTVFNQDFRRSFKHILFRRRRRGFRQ
Sequence (P19328 whole entry): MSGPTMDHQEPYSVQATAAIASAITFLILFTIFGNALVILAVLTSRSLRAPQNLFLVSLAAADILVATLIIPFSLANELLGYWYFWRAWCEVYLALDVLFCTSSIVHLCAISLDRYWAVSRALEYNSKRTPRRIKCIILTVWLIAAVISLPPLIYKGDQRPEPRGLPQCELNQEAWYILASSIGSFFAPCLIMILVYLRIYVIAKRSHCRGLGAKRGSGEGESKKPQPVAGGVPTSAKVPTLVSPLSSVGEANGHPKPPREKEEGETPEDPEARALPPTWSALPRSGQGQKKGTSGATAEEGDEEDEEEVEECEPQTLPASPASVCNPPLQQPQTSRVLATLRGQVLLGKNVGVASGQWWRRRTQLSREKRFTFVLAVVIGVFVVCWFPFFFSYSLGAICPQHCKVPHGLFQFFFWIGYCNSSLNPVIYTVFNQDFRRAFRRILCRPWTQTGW
Sequence (P22909 whole entry): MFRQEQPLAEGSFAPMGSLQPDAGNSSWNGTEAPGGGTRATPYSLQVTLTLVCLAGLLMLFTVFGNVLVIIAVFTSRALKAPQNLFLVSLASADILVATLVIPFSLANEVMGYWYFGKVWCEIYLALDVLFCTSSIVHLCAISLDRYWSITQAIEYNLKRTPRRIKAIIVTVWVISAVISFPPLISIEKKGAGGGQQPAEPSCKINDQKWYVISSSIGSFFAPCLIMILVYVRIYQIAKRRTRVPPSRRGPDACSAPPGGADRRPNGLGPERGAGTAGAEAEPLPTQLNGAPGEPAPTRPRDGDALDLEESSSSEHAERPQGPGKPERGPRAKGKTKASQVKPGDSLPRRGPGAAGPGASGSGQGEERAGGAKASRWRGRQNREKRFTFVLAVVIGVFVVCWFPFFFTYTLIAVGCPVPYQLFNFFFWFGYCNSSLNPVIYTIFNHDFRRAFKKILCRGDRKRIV
Experiment: Displacement of [3H]-RX 821002 from alpha2-AR in Sprague-Dawley rat brain membranes after 30 mins by liquid scintillation counting
Type: cell membranes, Membrane
property-measured: pKi

chemical-string	study-system	pKi
C=CCc1ccccc1NCC1=NCCN1	Adrenergic receptor alpha-2 (Rattus norvegicus, UniProt P22086+P19328+P22909)	6.79
c1ccc(-c2ccccc2NCC2=NCCN2)cc1	Adrenergic receptor alpha-2 (Rattus norvegicus, UniProt P22086+P19328+P22909)	6.75
CCCc1ccccc1NCC1=NCCN1	Adrenergic receptor alpha-2 (Rattus norvegicus, UniProt P22086+P19328+P22909)	6.75
Clc1ccccc1NCC1=NCCN1	Adrenergic receptor alpha-2 (Rattus norvegicus, UniProt P22086+P19328+P22909)	7.59
Cc1ccccc1NCC1=NCCN1	Adrenergic receptor alpha-2 (Rattus norvegicus, UniProt P22086+P19328+P22909)	7.73
